The measured values listed here are drawn from patent US10717716B2.

- target: human recombinant HDAC6 (Homo sapiens, UniProt Q9UBN7)
- Construct: purchased Calbiochem 382180
- protocol.description: HDAC6 enzyme activity inhibition assay (HDAC Fluorimetric Drug Discovery Kit)
- Assay type: biochemical
- condition.notes: human recombinant HDAC6, same protocol as HDAC1; read-out: HDAC6
reported.metric: log10 IC50 (log10 of the value in nM)
Answers are given as log10 of IC50 in nM.

> print(dat)
                            compound.smiles                                    target  reported.metric   val
1  CN1CCN(C(=O)N(Cc2ccc(-c3nnc(C(F)F)o3)cc2F)c2cccc3cnn(C)c23)CC1  human recombinant HDAC6 (Homo sapiens, UniProt Q9UBN7)       log10 IC50  1.70
2  O=C(N1CCN(C2COC2)CC1)N(Cc1ccc(-c2nnc(C(F)F)o2)cc1F)c1cccc(Cl)c1  human recombinant HDAC6 (Homo sapiens, UniProt Q9UBN7)       log10 IC50  1.68
3  CN1CCN(Cc2ccc(N(Cc3ccc(-c4nnc(C(F)F)o4)cc3F)C(=O)N3CCS(=O)(=O)CC3)cc2)CC1  human recombinant HDAC6 (Homo sapiens, UniProt Q9UBN7)       log10 IC50  1.60

Could you now look at the following compound, please?
INPUT: Quick check: log10 IC50 of `O=C(N1CCOCC1)N(Cc1ccc(-c2nnc(C(F)(F)F)o2)cc1F)c1ccccc1` ?
OUTPUT: 1.84

====

- target: human recombinant HDAC6 (Homo sapiens, UniProt Q9UBN7)
- Construct: purchased Calbiochem 382180
- Sequence (Q9UBN7 1-1215): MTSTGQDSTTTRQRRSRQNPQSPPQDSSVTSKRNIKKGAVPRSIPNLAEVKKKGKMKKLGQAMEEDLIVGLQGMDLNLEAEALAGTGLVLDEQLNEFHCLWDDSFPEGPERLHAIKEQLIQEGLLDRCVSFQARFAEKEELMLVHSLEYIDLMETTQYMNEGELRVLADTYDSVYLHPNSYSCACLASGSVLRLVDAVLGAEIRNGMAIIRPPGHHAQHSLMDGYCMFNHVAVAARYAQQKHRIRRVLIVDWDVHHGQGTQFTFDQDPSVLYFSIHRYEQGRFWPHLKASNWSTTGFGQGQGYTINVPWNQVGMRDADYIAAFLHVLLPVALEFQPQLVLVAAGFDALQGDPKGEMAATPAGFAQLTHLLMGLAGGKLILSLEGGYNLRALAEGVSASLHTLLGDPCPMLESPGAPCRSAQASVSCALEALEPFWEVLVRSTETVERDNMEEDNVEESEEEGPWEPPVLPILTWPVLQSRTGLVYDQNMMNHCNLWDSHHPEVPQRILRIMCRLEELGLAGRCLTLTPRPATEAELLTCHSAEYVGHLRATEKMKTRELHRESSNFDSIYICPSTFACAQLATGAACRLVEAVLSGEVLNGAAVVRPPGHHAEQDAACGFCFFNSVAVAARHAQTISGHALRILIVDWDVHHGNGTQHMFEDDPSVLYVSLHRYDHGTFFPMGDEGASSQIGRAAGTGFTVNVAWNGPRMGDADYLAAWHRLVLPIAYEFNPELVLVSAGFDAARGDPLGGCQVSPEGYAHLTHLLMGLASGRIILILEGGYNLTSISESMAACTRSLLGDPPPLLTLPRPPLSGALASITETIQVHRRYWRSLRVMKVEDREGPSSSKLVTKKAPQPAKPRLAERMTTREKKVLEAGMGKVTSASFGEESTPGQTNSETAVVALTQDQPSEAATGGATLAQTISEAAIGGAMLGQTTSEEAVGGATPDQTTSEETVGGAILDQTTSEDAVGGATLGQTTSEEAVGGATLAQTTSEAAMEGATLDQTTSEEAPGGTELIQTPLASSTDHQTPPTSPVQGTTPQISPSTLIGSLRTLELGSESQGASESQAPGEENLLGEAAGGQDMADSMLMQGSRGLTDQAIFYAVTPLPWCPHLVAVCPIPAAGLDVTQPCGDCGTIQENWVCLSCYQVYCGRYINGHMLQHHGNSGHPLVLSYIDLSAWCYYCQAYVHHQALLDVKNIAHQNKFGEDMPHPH
- protocol.description: HDAC6 enzyme activity inhibition assay (HDAC Fluorimetric Drug Discovery Kit)
- Assay type: biochemical
- condition.notes: HDAC6 over HDAC1
reported.metric: HDAC6 selectivity (fold)
Report only the number, with the unit fold understood.

> print(dat)
                            compound.smiles  val
1  CCN1CCN(C(=O)N(Cc2ccc(-c3nnc(C(F)F)o3)cc2)c2ccc(OC)cc2)CC1  548
2  O=C(N1CCOCC1)N(Cc1ccc(-c2nnc(C(F)(F)F)o2)cc1F)c1ccc(Cl)cc1  157
3  CN1CCN(C(=O)N(Cc2ccc(-c3nnc(C(F)F)o3)cc2F)c2ccc(-c3cccnc3)cc2)CC1  333
4  O=C(N1CCS(=O)(=O)CC1)N(Cc1ccc(-c2nnc(C(F)(F)F)o2)cc1F)c1cccc(OC(F)(F)F)c1   47
5  CCN1CCN(C(=O)N(Cc2ccc(-c3nnc(C(F)F)o3)cc2F)c2cccc(OC)c2)CC1  185

INPUT: Quick check: HDAC6 selectivity (fold) of `COc1ccc(N(Cc2ccc(-c3nnc(C(F)F)o3)cc2F)C(=O)N2CCS(=O)(=O)CC2)cc1` ?
OUTPUT: 270

INPUT: Quick check: HDAC6 selectivity (fold) of `Cc1nnc(N(Cc2ccc(-c3nnc(C(F)F)o3)cc2F)C(=O)N2CCOCC2)s1` ?
OUTPUT: 10
